Target: Polyunsaturated fatty acid lipoxygenase ALOX12 (Homo sapiens)
Test: Primary qHTS assay for inhibitors of human arachidonate 12S-lipoxygenase (ALOX12): Round 2
Conditions: purified 12hLO, xylenol orange hydroperoxide absorbance; series mostly up to 108 µM
In all, about 580,000 compounds went through this assay and about 6,100 (1.1%) were called active. Inconclusive results (about 15%) are left out. Calls follow the shape of the dose curve; as a rule, active = well fitted inhibition curve with a large enough effect; inconclusive = small, poorly fitted or top-dose-only effect, or another doubt; inactive = no such curve, though single readings can be large or run the other way. For the sample, actives were picked, then their nearest neighbours and some compounds at random.
Classes used: active, inactive

{"compound": "S=C(NN=Cc1ccccn1)Nc1ccccn1", "assigned.category": "active"}
{"compound": "Nc1nc(COC(=O)c2ccc(OC(F)F)cc2)nc2ccccc12", "assigned.category": "inactive"}
{"compound": "Cc1onc(-c2ccccc2)c1C(=O)NNC(=S)NC(=O)c1ccc(F)cc1", "assigned.category": "active"}
{"compound": "CCOc1ccccc1NC(=O)c1cnc2ccccc2n1", "assigned.category": "inactive"}
{"compound": "COc1cccc(NC(=O)c2csnn2)c1", "assigned.category": "inactive"}
{"compound": "CCCn1nc(C(=O)Nc2nc(-c3ccc(NC(C)=O)cc3)cs2)c2ccccc2c1=O", "assigned.category": "inactive"}
{"compound": "CCOc1ccc(NC(=O)C(=O)c2c[nH]c3ccccc23)cc1", "assigned.category": "inactive"}
{"compound": "O=C(NC1CCNC1)C1CCN(c2nc(-c3ccccc3)nc3c2CCC3)CC1 (stereo not given)", "assigned.category": "inactive"}
{"compound": "CCCCCCC(C)NC(=O)COC(=O)c1n[nH]c(=O)c2ccccc12 (stereo not given)", "assigned.category": "inactive"}
{"compound": "CN(C)CCNC(=O)CC1CCN(C(=O)c2nnc(C(=O)Nc3cccc(Cl)c3)s2)CC1", "assigned.category": "inactive"}
{"compound": "C[C@H]1CN(C(=O)Nc2ccc(F)cc2)C[C@@H]1c1nc(-c2ccccc2)no1", "assigned.category": "inactive"}
{"compound": "COc1ccc(C(=O)NC(=S)NNC(=O)c2c(-c3ccccc3)noc2C)cc1", "assigned.category": "active"}
{"compound": "Cc1c(S(=O)(=O)N2CCCC2c2cccc(F)c2)cnn1C(F)F (stereo not given)", "assigned.category": "inactive"}
{"compound": "Cc1ccc(CNCc2ccc3c(c2)OCO3)c(C)c1", "assigned.category": "active"}
{"compound": "CN(C)C(=O)c1nc2ccc(Cl)cn2c1CNCc1cccc(OC(F)(F)F)c1", "assigned.category": "inactive"}
{"compound": "O=C(OCc1ccc(F)cc1)c1cnc2ccccc2n1", "assigned.category": "active"}
{"compound": "O=C(NC1CCc2ccccc21)c1cc(COc2ccc3c(c2)OCO3)[nH]n1 (stereo not given)", "assigned.category": "inactive"}
{"compound": "CC(=O)c1c(C)[nH]c(C(=O)c2oc3ccc(Cl)cc3c2C)c1C", "assigned.category": "inactive"}
{"compound": "COCc1nc(CCNC(=O)CCc2ccccc2)no1", "assigned.category": "inactive"}
{"compound": "O=C(Cn1ccc2cc(Cl)ccc21)Nc1ccc2[nH]ccc2c1", "assigned.category": "inactive"}
{"compound": "COc1ccc(-c2noc([C@@H](C)NCc3ccc(F)cc3)c2C(=O)O)cc1", "assigned.category": "inactive"}
{"compound": "Cc1cccc(OCC(O)CNC23CC4CC(CC(C4)C2)C3)c1 (stereo not given)", "assigned.category": "inactive"}
{"compound": "NCCC(=O)Nc1ccccn1", "assigned.category": "inactive"}
{"compound": "CC(C)Cn1nc(C(=O)Nc2ccc3nc(N4CCOCC4)sc3c2)c2ccccc2c1=O", "assigned.category": "inactive"}
{"compound": "Cc1cc2nc(-c3ccco3)c(Cc3cccc(F)c3)n2c(C)c1Br", "assigned.category": "active"}
{"compound": "CCOC(=O)c1c(NC(=O)c2c(-c3ccccc3)noc2C)sc2c1CCC2", "assigned.category": "inactive"}
{"compound": "COc1cccc2cc(S(=O)(=O)c3ccc(Cl)c(Cl)c3)c(=O)oc12", "assigned.category": "inactive"}
{"compound": "NC(=O)CN1C(=O)C(O)(CC(=O)c2ccc3c(c2)OCO3)c2ccccc21 (stereo not given)", "assigned.category": "inactive"}
{"compound": "CN(Cc1ccc(F)cc1F)C(=O)COc1ccc2ccc(=O)oc2c1", "assigned.category": "inactive"}
{"compound": "Fc1ccc(/C=N/N=C/c2ccc(F)cc2F)c(F)c1", "assigned.category": "inactive"}
{"compound": "CCCNC(=O)c1ccc(NC(=O)CCc2ccccc2)cc1", "assigned.category": "inactive"}
{"compound": "COc1ccc(C(=O)NC(=S)NNC(=O)CCc2ccccc2)cc1", "assigned.category": "active"}
{"compound": "Cc1cc2oc(C(=O)NCc3ccc4c(c3)OCO4)cc(=O)c2cc1C", "assigned.category": "inactive"}
{"compound": "CCC(C)Cn1c(O)cc2nn(-c3nc4ccccc4s3)c(=O)c-2c1C (stereo not given)", "assigned.category": "active"}
{"compound": "CCc1nnc2sc(-c3cccc(NC(=O)Cc4ccccc4)c3)nn12", "assigned.category": "inactive"}
{"compound": "CCOc1ccc(CNS(=O)(=O)c2ccc(-c3ccc(=O)[nH]n3)o2)cc1", "assigned.category": "inactive"}
{"compound": "Cc1ccc(Cl)c(OC(C)C(=O)NN)c1 (stereo not given)", "assigned.category": "inactive"}
{"compound": "CCOC(=O)c1c(C)c(CCC(=O)NCCN2CCOCC2)c(C)n1C", "assigned.category": "inactive"}
{"compound": "COc1cccc(NC(=O)C2(C#N)CCCC2)c1", "assigned.category": "inactive"}
{"compound": "CCOC(=O)/C(=C/c1ccc(Cl)s1)c1nccn1C", "assigned.category": "inactive"}
{"compound": "Cc1cccc(-n2nc(-c3c(C)nc4scc(CC(=O)NCCC(C)C)n4c3=O)cc2C)c1C", "assigned.category": "inactive"}
{"compound": "COC(=O)c1ccc2nc(-c3cccc(Br)c3)c(Cc3ccc(OC)cc3C)n2c1", "assigned.category": "active"}
{"compound": "CCOc1ccc(S(=O)(=O)NCc2ccc3c(c2)OCO3)cc1C", "assigned.category": "inactive"}
{"compound": "CCN1CCC(O)(/C=C/c2ccc(C)cc2)C(C(=O)/C=C/c2ccc(C)cc2)C1 (stereo not given)", "assigned.category": "active"}
{"compound": "Nc1ccc(-c2cc(C(=O)O)c3cc(Cl)ccc3n2)cc1", "assigned.category": "inactive"}
